- study-system: UniProtKB P10275
- Sequence (P10275 whole entry): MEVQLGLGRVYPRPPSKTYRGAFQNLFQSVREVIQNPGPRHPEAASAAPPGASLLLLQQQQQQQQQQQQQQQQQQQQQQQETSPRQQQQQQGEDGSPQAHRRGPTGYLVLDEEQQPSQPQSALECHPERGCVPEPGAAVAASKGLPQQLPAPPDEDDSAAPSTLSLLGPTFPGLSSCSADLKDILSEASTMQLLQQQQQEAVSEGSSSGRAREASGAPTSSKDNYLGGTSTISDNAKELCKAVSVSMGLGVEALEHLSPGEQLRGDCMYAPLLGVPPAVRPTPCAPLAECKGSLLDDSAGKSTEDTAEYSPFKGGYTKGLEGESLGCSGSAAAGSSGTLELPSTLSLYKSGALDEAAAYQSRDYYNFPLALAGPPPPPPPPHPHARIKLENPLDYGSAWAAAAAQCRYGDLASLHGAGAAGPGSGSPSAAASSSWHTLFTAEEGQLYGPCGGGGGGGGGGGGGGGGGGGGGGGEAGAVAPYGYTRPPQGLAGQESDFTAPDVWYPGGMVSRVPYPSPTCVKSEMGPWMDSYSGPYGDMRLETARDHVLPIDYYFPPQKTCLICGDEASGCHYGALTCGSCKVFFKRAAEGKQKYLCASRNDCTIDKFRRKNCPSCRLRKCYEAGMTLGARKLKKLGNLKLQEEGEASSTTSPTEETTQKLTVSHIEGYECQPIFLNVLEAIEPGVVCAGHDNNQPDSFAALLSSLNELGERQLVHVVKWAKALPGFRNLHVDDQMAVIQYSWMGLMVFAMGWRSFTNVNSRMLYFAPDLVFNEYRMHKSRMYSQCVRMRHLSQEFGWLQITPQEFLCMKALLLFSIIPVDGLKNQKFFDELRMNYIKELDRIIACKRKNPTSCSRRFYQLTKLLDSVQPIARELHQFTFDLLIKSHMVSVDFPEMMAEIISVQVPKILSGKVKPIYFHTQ
- assay-notes: Antagonist activity at human androgen receptor expressed in HEK293 cells assessed as inhibition of transcriptional activity by luciferase and beta-galactosidase reporter gene assay
endpoint-label: IC50 (µM)

>>> value_measured("CC[Si](CC)(c1ccc(OC[C@@H](O)CO)c(C)c1)c1ccc(OC[C@H](O)C(C)(C)C)c(C)c1 (mixture of isomers)")
5.8
>>> value_measured("CC[Si](CC)(c1ccc(OC[C@@H](O)CO)c(C)c1)c1ccc(OC[C@@H](O)C(C)(C)C)c(C)c1")
8.3
>>> value_measured("CC[Si](CC)(c1ccc(OC[C@H](O)CO)c(C)c1)c1ccc(OC[C@H](O)C(C)(C)C)c(C)c1")
6.7
>>> value_measured("CC[Si](CC)(c1ccc(OCC(=O)C(C)(C)C)c(C)c1)c1ccc(OC[C@H](O)CO)c(C)c1")
4
